biological target: human GnRH receptor (Homo sapiens); construct: expressed in transfected cells; host or cells: CHO (Chinese Hamster Ovary) cells, membrane fraction; assay: Test for inhibition of ^125 I-leuprorelin binding to human GnRH receptor; details: membrane fraction of CHO cells expressing human GnRH receptors, 25° C., 60 minutes, read-out: Binding Inhibitory Activity (IC50, μM) for human GnRH receptor
Sequence (P30968 whole entry): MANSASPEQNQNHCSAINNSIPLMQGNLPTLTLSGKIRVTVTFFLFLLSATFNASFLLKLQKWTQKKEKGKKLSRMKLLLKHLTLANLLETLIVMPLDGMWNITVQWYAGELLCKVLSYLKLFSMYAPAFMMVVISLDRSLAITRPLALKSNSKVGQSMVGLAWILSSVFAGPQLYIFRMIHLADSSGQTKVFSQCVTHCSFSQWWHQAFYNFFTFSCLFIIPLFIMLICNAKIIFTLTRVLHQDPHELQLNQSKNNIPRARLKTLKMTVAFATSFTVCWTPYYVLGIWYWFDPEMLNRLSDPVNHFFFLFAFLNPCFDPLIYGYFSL
Catalogue of IC50 values
recorded-metric: IC50 (µM)

molecule	reading
O=C1c2ccccc2C(=O)N1CC(=O)N1c2ccccc2N(Cc2ccc(Cl)cc2)C(=O)[C@H]2CCC[C@H]21 (relative stereo)	2
O=C1Cc2ccccc2N1CC(=O)N1c2ccccc2N(Cc2ccccc2)C(=O)[C@H]2CCC[C@H]21 (relative stereo)	15
N#Cc1ccc(CN2C(=O)[C@H]3CCC[C@H]3N(C(=O)CN3C(=O)c4ccccc4C3=O)c3ccccc32)cc1 (relative stereo)	0.4
O=C1c2ccccc2C(=O)N1CC(=O)N1c2ccccc2N(Cc2ccc(F)cc2)C(=O)[C@H]2CCC[C@H]21 (relative stereo)	2
CN(CC(=O)N1c2ccccc2N(Cc2ccccc2)C(=O)[C@H]2CCC[C@H]21)Cc1ccccc1 (relative stereo)	11
O=C1C2CCCCC2C(=O)N1CC(=O)N1c2ccccc2N(Cc2ccccc2)C(=O)C2CCCC21 (stereo not drawn)	5
